Tested on: Plasmodium berghei
Assay Remarks: Luciferase/luciferin-expressing antifolate-resistant parasites were used to infect a culture of HepG2 cells that were pre-incubated with compounds. Infected hepatocytes emit light due to the luciferase reaction. Assay results are presented as the percent inhibition of light emission compared to control. […]
Type: functional
Measurement Context: sporozoite, HEPG2TOX_HILL_SLOPE 11.1, HEPG2TOX_R_SQUARED 0.736, PBLUC_HILL_SLOPE 11.3, PBLUC_R_SQUARED 0.239, read-out: LUCIFERASE INFECTION ASSAY - IC50
Measure Name: IC50 (µM)

structure=O=C(/C=C/c1ccc(-c2ccccc2Cl)s1)N1CCN(c2ncccn2)CC1 quantitative_readout=9.23

All figures here come from ChEMBL document CHEMBL4483862.
